biological target: Tyrosine-protein kinase JAK1 (Homo sapiens); experiment: Inhibition of recombinant JAK1 (unknown origin) incubated for 120 mins in presence of [33P]-ATP by hotspot assay
Sequence (P23458 whole entry): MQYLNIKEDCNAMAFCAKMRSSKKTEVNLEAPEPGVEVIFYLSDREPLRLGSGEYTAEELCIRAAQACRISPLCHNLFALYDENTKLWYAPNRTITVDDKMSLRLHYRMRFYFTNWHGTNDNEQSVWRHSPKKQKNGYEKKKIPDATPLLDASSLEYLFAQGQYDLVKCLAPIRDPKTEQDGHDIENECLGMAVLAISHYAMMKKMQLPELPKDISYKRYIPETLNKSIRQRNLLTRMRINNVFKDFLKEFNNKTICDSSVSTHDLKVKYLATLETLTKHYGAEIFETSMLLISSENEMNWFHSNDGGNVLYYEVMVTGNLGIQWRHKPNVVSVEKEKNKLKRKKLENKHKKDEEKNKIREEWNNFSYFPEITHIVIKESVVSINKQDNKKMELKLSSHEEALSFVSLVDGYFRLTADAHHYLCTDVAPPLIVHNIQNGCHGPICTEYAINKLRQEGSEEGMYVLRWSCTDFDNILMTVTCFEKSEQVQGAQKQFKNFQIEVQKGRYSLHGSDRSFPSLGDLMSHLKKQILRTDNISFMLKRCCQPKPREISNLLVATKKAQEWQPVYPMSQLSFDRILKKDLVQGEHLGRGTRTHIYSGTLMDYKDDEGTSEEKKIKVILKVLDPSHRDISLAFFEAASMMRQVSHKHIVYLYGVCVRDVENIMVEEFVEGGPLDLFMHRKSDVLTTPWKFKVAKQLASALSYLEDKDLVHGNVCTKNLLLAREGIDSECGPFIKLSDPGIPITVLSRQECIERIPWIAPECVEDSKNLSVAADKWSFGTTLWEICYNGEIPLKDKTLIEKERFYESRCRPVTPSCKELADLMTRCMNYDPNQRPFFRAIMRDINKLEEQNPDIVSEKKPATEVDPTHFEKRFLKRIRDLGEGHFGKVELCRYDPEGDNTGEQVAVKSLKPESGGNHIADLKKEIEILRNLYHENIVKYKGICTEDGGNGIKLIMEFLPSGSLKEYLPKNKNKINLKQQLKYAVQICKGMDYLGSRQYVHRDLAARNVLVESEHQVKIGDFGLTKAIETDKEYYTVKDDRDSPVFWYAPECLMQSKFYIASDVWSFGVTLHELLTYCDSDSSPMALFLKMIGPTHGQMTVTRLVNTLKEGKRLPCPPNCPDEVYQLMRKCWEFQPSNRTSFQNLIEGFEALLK
measurement kind: IC50 (µM)
// return numeric value only (unit: µM, not printed)

Task: Please state recorded IC50 (tested on Tyrosine-protein kinase JAK1 (Homo sapiens)) of COc1ccc2c(c1)/C(=C1/Nc3ccccc3/C1=N\OCC(O)CO)C(=O)N2 (stereo unspecified)
Output: 0.0104
